# target-system: human LPA1 (Homo sapiens)
# Sequence (Q92633 whole entry): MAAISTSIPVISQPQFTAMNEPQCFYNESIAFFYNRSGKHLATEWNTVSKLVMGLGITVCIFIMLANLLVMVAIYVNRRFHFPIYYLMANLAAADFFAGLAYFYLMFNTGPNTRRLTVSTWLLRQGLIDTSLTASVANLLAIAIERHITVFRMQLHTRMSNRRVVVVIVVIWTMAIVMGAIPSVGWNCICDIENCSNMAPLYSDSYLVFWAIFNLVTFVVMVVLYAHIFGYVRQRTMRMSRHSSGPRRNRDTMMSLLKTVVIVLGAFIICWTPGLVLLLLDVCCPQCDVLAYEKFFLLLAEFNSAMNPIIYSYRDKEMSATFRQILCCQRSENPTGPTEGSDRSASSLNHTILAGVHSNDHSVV
# method: LPA1 functional antagonist assay (LPA-induced calcium flux)
# condition-info: CHO cells overexpressing human LPA1, 10 nM LPA, read-out: hLPA1 IC50
pIC50: −log10 of the molar value.

compound | pIC50
Cn1ncc(-c2ccc(O[C@H]3CCC[C@H](C(=O)O)C3)cn2)c1CNC(=O)OCc1cc(F)ccc1F [Example 9] | 7.15
Cc1nc(-c2cnn(C)c2NC(=O)O[C@H](C)c2ccccc2)ncc1O[C@H]1CCC[C@H](C(=O)O)C1 [Example 40] | 6.98
Cc1nc(-c2cnn(C)c2CNC(=O)OCc2cc(F)cc(F)c2)ccc1O[C@H]1CCC[C@H](C(=O)O)C1 [Example 6] | 8.15
CCCCOC(=O)N(C)Cc1c(-c2ccc(O[C@H]3CCC[C@H](C(=O)O)C3)c(C)n2)cnn1C [Example 2] | 7.31
Cc1nc(-c2cnn(C)c2NC(=O)OCC(C)C)ncc1O[C@H]1CCC[C@H](C(=O)O)C1 [Example 43] | 6.25
CCCCOC(=O)NCc1c(-c2ccc(O[C@H]3CCC[C@H](C(=O)O)C3)c(C)n2)cnn1C [Example 1] | 7.55
